Property: B (SE), Loop diuretic on analyte level; scope: individual molecules
Assay: Genotype-stratified analysis: loop diuretic association with endpoints by ABCG2 rs2231142 (Q141K)
Type: in vivo, human
Conditions: ABCG2 rs2231142 variant carrier (n = 136), on LD n = 22; adjusted
Protocol: Exploratory genotype‐stratified analyses were carried out to further assess key identified drug–drug interactions. […]

Some molecules with recorded B (SE), Loop diuretic on analyte level:
CC(C)c1c(C(=O)Nc2ccccc2O)c(-c2ccccc2)c(-c2ccc(F)cc2)n1CC[C@@H](O)C[C@@H](O)CC(=O)O [2‐OH ATV] | −0.051 (0.077)
CC(C)c1c(C(=O)Nc2ccccc2)c(-c2ccccc2)c(-c2ccc(F)cc2)n1CCC1CC(O)CC(=O)O1 (stereo not shown) [ATV L] | 0.077 (0.089)
CC(C)c1c(C(=O)Nc2ccccc2)c(-c2ccccc2)c(-c2ccc(F)cc2)n1CC[C@@H](O)C[C@@H](O)CC(=O)O [ATV, atorvastatin, reference compound] | 0.041 (0.086)

Next:
## Input Endpoint output: B (SE), Loop diuretic on analyte level of CC(C)c1c(C(=O)Nc2ccccc2O)c(-c2ccccc2)c(-c2ccc(F)cc2)n1CCC1CC(O)CC(=O)O1 (stereo not shown) [2‐OH ATV L] . Value?
## Output 0.044 (0.075)

* * *

assay: Plasma concentrations of ATV and metabolites by HPLC-MS/MS in NSTE-ACS patients at V2 (1 month); format: in vivo, human; conditions: human, plasma, oral, 40 mg daily, 40 mg ATV daily; plasma at V2, median […] since last ATV (estimated); read-out: Conc (ng/mL), median (IQR)
QUANTITY_KIND: concentration at […] (ng/mL)

Example cases with answers are listed next.
CC(C)c1c(C(=O)Nc2ccccc2O)c(-c2ccccc2)c(-c2ccc(F)cc2)n1CCC1CC(O)CC(=O)O1 (stereo not shown) | 4.24
CC(C)c1c(C(=O)Nc2ccccc2)c(-c2ccccc2)c(-c2ccc(F)cc2)n1CC[C@@H](O)C[C@@H](O)CC(=O)O [ATV, atorvastatin, reference compound] | 3.96

a: CC(C)c1c(C(=O)Nc2ccccc2O)c(-c2ccccc2)c(-c2ccc(F)cc2)n1CC[C@@H](O)C[C@@H](O)CC(=O)O
b: CC(C)c1c(C(=O)Nc2ccccc2)c(-c2ccccc2)c(-c2ccc(F)cc2)n1CCC1CC(O)CC(=O)O1 (stereo not shown)
## Input Select one: a or b . Criterion: greater recorded concentration at […]. Selection: enter the item's label.
## Output a

* * *

test: Plasma concentrations of ATV and metabolites by HPLC-MS/MS in NSTE-ACS patients at V2 (1 month); assay type: in vivo, human; conditions: human, plasma, oral, median ATV concentration, patients not on a loop diuretic; unadjusted
QUANTITY_KIND: concentration at 1 month (ng/mL)
Enter your answer as a number in ng/mL; do not include the unit.

## Input Look up concentration at 1 month for this compound: CC(C)c1c(C(=O)Nc2ccccc2)c(-c2ccccc2)c(-c2ccc(F)cc2)n1CC[C@@H](O)C[C@@H](O)CC(=O)O [ATV, atorvastatin, reference compound]
## Output 4.9

Reference source: paper PMC6983514
